tested on: DCAMKL2; construct: gene DCLK2; settings: concentration: 1 μM, replicates: in singlicate; n = 1;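 further: KINOMEscan kinase panel screen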
reported_metric: %Inh (%)
# output: bare number, implied unit %

// below: answered molecules
INSERT INTO assay_data (molecule, numeric_readout) VALUES
  ('Cl.c1ccc(Cn2cnc3cc(Nc4ncnc5ccccc45)ccc32)cc1 [GW272142]', 20),
  ('COc1ccc(CNC(=O)NC2CCN(c3ccnc(Nc4ccc(F)cc4)n3)C2)cc1 (stereo not shown) [GSK1379706]', 60),
  ('COc1cc2ncn(-c3cc(OCc4ccc(S(C)(=O)=O)cc4)c(C(N)=O)s3)c2cc1OC [GW869979]', 19);

# ---- query molecule ----
May I ask what %Inh has been recorded for `Cc1nc(N(C)[C@H]2CN(C(=O)CC#N)CC[C@H]2C)c2cc[nH]c2n1` ?
0

---

tested on: AMPK-alpha2; construct: gene PRKAA2; conditions: concentration: 1 μM, replicates: in singlicate; n = 1
Examples of molecules with documented %Inh follow.
# output: bare number, implied unit %

INSERT INTO assay_data (molecule, numeric_readout) VALUES
  ('Nc1nc(-c2ccccc2F)c(-c2ccnc3ccccc23)s1', 1),
  ('Nc1ncnc2c1ncn2-c1ccc(Cl)cc1', 0),
  ('CCS(=O)c1ccc(-c2coc3ccc(-c4nnc(C)o4)cc23)cc1 (stereo not drawn)', 1),
  ('O=C1NC(=O)C(c2ccccc2)=C1Nc1cccc(O)c1', 0);

May I ask what %Inh has been recorded for `Cl.c1ccc(Cn2cnc3cc(Nc4ncnc5ccccc45)ccc32)cc1` ?
0

May I ask what %Inh has been recorded for `COc1cc2nccc(Nc3cccc(Oc4ccccc4)c3)c2cc1OC.Cl` ?
0

---

system: HPK1; conditions: concentration: 1 μM, replicates: in singlicate; n = 1
Examples of molecules with documented %Inh follow.
# output: bare number, implied unit %

// below: answered molecules
INSERT INTO measurements (molecule, reported_metric, numeric_readout) VALUES
  ('CCc1ccc(-c2ccc3c(c2)-c2nn(C)cc2S(=O)(=O)N3C)cc1', '%Inh', 18),
  ('COc1ccc(-n2cnc3c(N)ncnc32)cc1 [SKF-97236]', '%Inh', 5),
  ('Cc1ccc(Oc2ccc(Nc3ncnc4cc[nH]c34)cc2C)cn1', '%Inh', 0);

# ---- query molecule ----
May I ask what %Inh has been recorded for COc1cc(Nc2nccc(N3CCC(NC(=O)C(C)c4ccc(Cl)cc4)C3)n2)cc(OC)c1OC (stereo not shown) [GSK1379757] ?
37

---

test system: IRAK3; conditions: concentration: 1 μM, replicates: in singlicate; n = 1
reported_metric: %Inh (%)
# output: bare number, implied unit %

INSERT INTO measurements (molecule, reported_metric, numeric_readout) VALUES
  ('Cc1ccc(-c2ccc3c(ccc4sc5c(c43)NC[C@@H](C)N=C5N(C)C)n2)cn1', '%Inh', 0),
  ('COc1cccc(C2=C(N(C)c3ccccc3)C(=O)NC2=O)c1', '%Inh', 20),
  ('CCn1c(-c2ccoc2)nc2cnccc21', '%Inh', 0);

May I ask what %Inh has been recorded for `CCc1nc(-c2cccc(C)c2)c(-c2ccncc2)s1` ?
0

May I ask what %Inh has been recorded for `O=C(Nc1n[nH]c2nc(-c3ccccc3)c(Cl)cc12)C1CC1` ?
23

May I ask what %Inh has been recorded for `COc1cc2ncn(-c3cc(OCc4ccncc4Br)c(C(N)=O)s3)c2cc1OC` ?
27

May I ask what %Inh has been recorded for `CCC(=O)c1c(-c2ccccc2)c2cc(Cl)ccc2c(=O)n1Cc1ccc(C(=O)O)cc1` ?
0

May I ask what %Inh has been recorded for `O=C(Nc1n[nH]c2nc(-c3ccccc3)c(Br)cc12)C1CC1` ?
0

May I ask what %Inh has been recorded for `O=C(NCCNc1ccnc(Nc2ccc(F)cc2)n1)Nc1ccc2c(c1)OCO2` ?
7

May I ask what %Inh has been recorded for `COc1cccc(C2=C(Nc3cccc(C(=O)O)c3)C(=O)NC2=O)c1` ?
7

May I ask what %Inh has been recorded for `Cc1cccc(-c2nc(Nc3ccc4c(cnn4C)c3)c3ccccc3n2)n1` ?
0

May I ask what %Inh has been recorded for `CCc1ccc(-c2ccc3c(c2)-c2nn(C)cc2S(=O)(=O)N3C)cc1` ?
0

May I ask what %Inh has been recorded for `Cn1c(=O)c(F)c(Nc2ccc(I)cc2F)c2c(=O)n(OC[C@H](O)CO)cnc21` ?
0

May I ask what %Inh has been recorded for `FC(F)(F)c1ccc(-c2ncn(CCCN3CCOCC3)c2-c2ccncc2)cc1` ?
10

May I ask what %Inh has been recorded for `Nc1ncnc2c1ncn2-c1ccc(Cl)cc1` ?
0

May I ask what %Inh has been recorded for `COc1cc2ncn(-c3cc(OCc4ccc(S(C)(=O)=O)cc4)c(C(N)=O)s3)c2cc1OC` ?
4
